Molecular target: T1, Biotinylated human BSSL (human, UniProt P19835 21-753, Biotinylated on glycosacarides, 30-40 biotin/BSSL)
T1 construct: hBSSL biotinylated in house; also called b-hBSSL; human BSSL-biotin
T1 sequence: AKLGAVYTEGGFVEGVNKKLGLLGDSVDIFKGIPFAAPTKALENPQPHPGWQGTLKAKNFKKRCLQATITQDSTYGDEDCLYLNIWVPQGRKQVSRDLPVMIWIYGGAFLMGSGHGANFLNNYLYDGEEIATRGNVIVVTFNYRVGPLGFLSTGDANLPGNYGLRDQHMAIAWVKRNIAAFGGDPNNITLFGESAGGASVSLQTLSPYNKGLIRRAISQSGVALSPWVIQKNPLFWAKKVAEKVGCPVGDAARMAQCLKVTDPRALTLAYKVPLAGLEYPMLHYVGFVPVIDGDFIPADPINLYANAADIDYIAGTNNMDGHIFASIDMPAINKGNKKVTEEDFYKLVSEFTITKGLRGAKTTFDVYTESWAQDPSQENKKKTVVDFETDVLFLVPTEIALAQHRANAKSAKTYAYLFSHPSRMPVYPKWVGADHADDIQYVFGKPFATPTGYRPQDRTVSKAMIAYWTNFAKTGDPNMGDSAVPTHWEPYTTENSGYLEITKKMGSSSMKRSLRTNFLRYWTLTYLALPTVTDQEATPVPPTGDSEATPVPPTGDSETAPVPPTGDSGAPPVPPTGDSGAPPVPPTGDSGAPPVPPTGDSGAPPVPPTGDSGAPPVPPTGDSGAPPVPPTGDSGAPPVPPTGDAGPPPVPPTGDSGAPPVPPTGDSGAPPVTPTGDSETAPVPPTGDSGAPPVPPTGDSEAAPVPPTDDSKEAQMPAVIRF
Assay: flow cytometry displacement assay; 1.5 ug antibody, 1 ug b-hBSSL
reportedProperty: percentage reduction of b-hBSSL binding to CD14+ monocytes
# answer = value followed by unit

binder	result
S-SL048-131 hIgG4 S228P (antibody, V domains shown, Tested as human IgG4 S228P) VH: QVQLVQSGAEVKKPGASVKVSCKASGYTFTSYNMHWVRQAPGQGLEWIGVINPGDGATSYAQKFKGRVTMTRDTSTSTVYMELSSLRSEDTAVYYCARDYYGSSPLGYWGQGTLVTVSS VL: DIQMTQSPSSLSASVGDRVTITCRASPSISYLNWYQQKPGKAPKLLIYAASKLASGVPSRFSGSGSGTDFTLTISSLQPEDFATYYCHQRSSSPTFGQGTKLEIK	31%

(Q) Which percentage reduction of b-hBSSL binding to CD14+ monocytes reading was recorded for the binder S-SL048-10 hIgG4 S228P (antibody, V domains shown, Tested as human IgG4 S228P) VH: QVQLVQSGAEVKKPGASVKVSCKASGYTFTSYNMHWVRQAPGQGLEWIGVINPSDGYTSYAQKFQGRVTMTRDTSTSTVYMELSSLRSEDTAVYYCARDYYGSSPLGYWGQGTLVTVSS VL: DIQMTQSPSSLSASVGDRVTITCRASPSISYLNWYQQKPGKAPKLLIYATSRLPSGVPSRFSGSGSGTDFTLTISSLQPEDFATYYCQQRSSSPTFGQGTKLEIK ?
(A) 34%

(Q) Another binder to check: S-SL048-11 hIgG4 S228P (antibody, V domains shown, also called clone 11; mAb11) VH: QVQLVQSGAEVKKPGASVKVSCKASGYTFTSYNMHWVRQAPGQGLEWMGVIYPGDGATSYAQKFKGRVTMTRDTSTSTVYMELSSLRSEDTAVYYCARDYYGSSPLGYWGQGTLVTVSS VL: DIQMTQSPSSLSASVGDRVTITCSASPSISYMNWYQQKPGKAPKLLIYATSSLASGVPSRFSGSGSGTDFTLTISSLQPEDFATYYCHQRSSYPTFGQGTKLEIKR
(A) 60%
